Data provenance: ChEMBL document CHEMBL5126542

Molecular target: Toll-like receptor 4 (Homo sapiens)
Sequence (O00206 whole entry): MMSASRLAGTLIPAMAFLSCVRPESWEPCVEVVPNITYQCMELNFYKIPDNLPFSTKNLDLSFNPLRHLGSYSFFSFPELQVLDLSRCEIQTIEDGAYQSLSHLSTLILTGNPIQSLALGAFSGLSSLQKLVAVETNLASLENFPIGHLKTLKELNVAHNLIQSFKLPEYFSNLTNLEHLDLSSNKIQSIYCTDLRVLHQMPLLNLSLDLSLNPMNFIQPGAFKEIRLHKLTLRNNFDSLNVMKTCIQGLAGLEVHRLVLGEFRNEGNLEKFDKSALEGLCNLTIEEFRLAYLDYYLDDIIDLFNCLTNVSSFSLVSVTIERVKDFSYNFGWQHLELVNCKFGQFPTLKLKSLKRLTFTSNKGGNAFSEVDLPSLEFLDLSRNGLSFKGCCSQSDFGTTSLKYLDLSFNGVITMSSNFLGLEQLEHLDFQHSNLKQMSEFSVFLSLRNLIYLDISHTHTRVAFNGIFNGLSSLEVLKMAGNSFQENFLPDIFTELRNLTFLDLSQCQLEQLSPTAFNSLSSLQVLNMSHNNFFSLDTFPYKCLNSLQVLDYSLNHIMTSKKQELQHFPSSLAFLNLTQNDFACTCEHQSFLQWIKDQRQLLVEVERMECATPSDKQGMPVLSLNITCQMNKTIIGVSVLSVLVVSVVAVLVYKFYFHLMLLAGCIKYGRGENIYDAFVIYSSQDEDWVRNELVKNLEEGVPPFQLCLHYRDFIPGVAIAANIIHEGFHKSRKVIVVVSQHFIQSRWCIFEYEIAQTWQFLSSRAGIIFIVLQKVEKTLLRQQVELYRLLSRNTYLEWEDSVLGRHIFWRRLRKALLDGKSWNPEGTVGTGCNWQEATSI
Assay: Inhibition of human TLR4 expressed in HEK293-Blue hTLR4 cells assessed as SEAP expression
Format: cell-based, HEK-Blue hTLR4
Measured pIC50 of individual entries
# log scale: pIC50 equals minus log10 of the concentration in mol/L

Reference set, count: 2
{"columns": ["smiles.data", "pIC50"],
 "data": [
  ["N/C(=N\\c1ncc(C(=O)c2cc(Cl)ccc2O)cn1)Nc1ccc(F)cc1", 4.40],
  ["COc1ccc(C(=O)c2cnc(/N=C(\\N)Nc3ccc(F)cc3)nc2)c(O)c1", 4.74]
]}

Please list pIC50 recorded for the compound COc1ccc(N/C(N)=N/c2ncc(C(=O)c3ccccc3O)cn2)cc1
4.57
